- assay.system: human CD137 (human, UniProt Q07011 24-186)
- Sequence (Q07011 24-186 limits assumed): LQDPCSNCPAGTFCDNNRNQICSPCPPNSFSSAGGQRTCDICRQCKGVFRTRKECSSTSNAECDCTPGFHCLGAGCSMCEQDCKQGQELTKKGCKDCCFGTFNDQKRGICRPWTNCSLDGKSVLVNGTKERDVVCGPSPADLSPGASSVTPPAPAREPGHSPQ
- run.description: SPR Biacore T200, IgG captured on protein A, 25 C;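 also: antigens diluted in ACES running buffer at pH 7.4 were flowed over antibodies held on a CM3 chip bearing amine-coupled protein A, with buffer alone serving as blank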
Catalogue of koff values
assay.endpoint: koff

binder	result
dBBDu189/L119 (antibody, V domains shown, IgG format; constant regions not specified) VH: QVQLVESGGGLVQPGRSLRLSCAASGFTFSNAWMHWVRQAPGKGLEWIAQIKDRSNQYATYYAPSVKGRFTISRDDSKNSIYLQMNSLKTEDTAVYYCHYVHYAQASSLLPSFGVDAWGQGTTVTVSS VL: DIVMTQSPLSLPVTPGEPASISCTASQELVHINRFIFLHWYQQKPGQAPRLLIYKVSNRFIGVPDRFSGSGSGTDFTLKISRVEAEDVGVYYCAQGSQVPFTFGQGTKLEIK	0.000402 s⁻¹
dBBDu193/L127 (antibody, V domains shown, IgG format; constant regions not specified; also called dBBDu_193 dBBDu.L127) VH: QVQLVESGGGLVQPGRSLRLSCAASGFTFSNAWMHWVRQAPGKGLEWVAQIKDRSNQYATYYAPSVKGRFTISRDDSKNSIYLQMNSLKTEDTAVYYCHYVHYSAASTLLPSFGVDAWGQGTTVTVSS VL: DIVMTQSPLSLPVTPGEPASISCRASEELLHINRHIFLHWYQQKPGQAPRLLIYKVYNRFTGVPDRFSGSGSGTDFTLKISRVEAEDVGVYYCAQGTSVPFTFGQGTKLEIK	0.00145 s⁻¹
dBBDu189/L126 (antibody, V domains shown, IgG format; constant regions not specified) VH: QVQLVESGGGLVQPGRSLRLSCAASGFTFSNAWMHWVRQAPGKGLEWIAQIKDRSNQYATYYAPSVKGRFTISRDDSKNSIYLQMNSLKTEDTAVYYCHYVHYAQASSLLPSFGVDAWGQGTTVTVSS VL: DIVMTQSPLSLPVTPGEPASISCRTSEELLHINRYIFLHWYQQKPGQAPRLLIYKVQNRFSGVPDRFSGSGSGTDFTLKISRVEAEDVGVYYCAQGSAVPFTFGQGTKLEIK	0.000688 s⁻¹
dBBDu186/L098 (antibody, V domains shown, IgG format; constant regions not specified) VH: QVQLVESGGGLVQPGRSLRLSCAASGFTFSNAWMHWVRQAPGKGLEWVAQIKDRSNQYATYYAPSVKGRFTISRDDSKNSIYLQMNSLKTEDTAVYYCHYVHYAQASTVLPAFGVDAWGQGTTVTVSS VL: DIVMTQSPLSLPVTPGEPASISCAASEELVHINRYIFLHWYQQKPGQAPRLLIYKVSNRFIGVPDRFSGSGSGTDFTLKISRVEAEDVGVYYCAQGSQVPFTFGQGTKLEIK	0.000534 s⁻¹
dBBDu193/L132 (antibody, V domains shown, IgG format; constant regions not specified; also called dBBDu_193 dBBDu.L132) VH: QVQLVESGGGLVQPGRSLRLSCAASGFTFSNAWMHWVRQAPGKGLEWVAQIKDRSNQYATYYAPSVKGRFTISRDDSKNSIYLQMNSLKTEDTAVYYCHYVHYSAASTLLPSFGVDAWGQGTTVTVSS VL: DIVMTQSPLSLPVTPGEPASISCQTSEELVHINRFIFLHWYQQKPGQAPRLLIYKVSNRFSGVPDRFSGSGSGTDFTLKISRVEAEDVGVYYCAQGTSVPFTFGQGTKLEIK	0.00211 s⁻¹
